B1: TPR 5TU (parent)
chain: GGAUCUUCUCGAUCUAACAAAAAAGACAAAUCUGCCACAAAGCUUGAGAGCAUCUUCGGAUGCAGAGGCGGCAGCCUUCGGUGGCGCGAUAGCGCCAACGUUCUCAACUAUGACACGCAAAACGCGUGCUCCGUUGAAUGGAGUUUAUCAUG

Variants of: B1
TEST_SUMMARY: polymerase ribozyme fitness, log enrichment relative to wild type (log ratio); higher = more active; in vitro selection for triplet polymerase activity
This sample holds only a part of the variants without activity.
PROPERTY_LABEL: polymerase ribozyme fitness (log ratio)

| VARIANT_NAME | RESULT |
| --- | --- |
| C36U U77G A98U U134A | ≤ -4.2 |
| C43G U55A U61G G86A A89G A122U | ≤ -4.2 |
| U6G A37C C51G G74C A98U C103A C118A G128U U135C U146C G152A | ≤ -4.2 |
| A21C A23U A24U G92A A106G G133A | ≤ -4.2 |
| A3U G70A A89C U139C U144A | ≤ -4.2 |
| U15A A17C A23U U55A G84A G92A G94A U102G C116G | ≤ -4.2 |
| G42C C105G | ≤ -4.2 |
| A29U A73G C93A G128U G140U | ≤ -4.2 |
| C27U C43A A97U A150G | ≤ -4.2 |
| A19U C35U G42U U55G G67A C85G A97C C114G G140U | ≤ -4.2 |
| U33G A60G C85A A97U A142C | ≤ -4.2 |
| A39G C63G G70C C87U A91G C99A A120G | ≤ -4.2 |
| C5G C18A A23G C54G G67A C93G C99G | ≤ -4.2 |
| C5U G50C C87U C103G A121G C123U C125G | ≤ -4.2 |
| U4C A23G C85U A98U G117A A119U G141U | ≤ -4.2 |
| U4A U15G A91C C114U C125A | ≤ -4.2 |
| U56A G83C G100U | ≤ -4.2 |
| A23C G62C C85G U134A U148C | ≤ -4.2 |
| U56A C79U C118G C132A | -4.05 |
| C8U U31G | -3.21 |
| A20C G25C G34U C54A A91G A119U A122U G124U C125G | ≤ -4.2 |
| U55A C57A A60G A73U C132U U145G | -2.26 |
| A47C G59C G86A | ≤ -4.2 |
| A37U G58C A97G C132U | -2.67 |
| U77C C96A | -2.82 |
| A40U A41C C96U | -0.566 |
| C14U G34U G68A C85U U144A C149A | ≤ -4.2 |
| A41C U53G | -3.43 |
| U4A A37U G94C A150G | -4.19 |
| A17G C27G A66G A107G A115C | ≤ -4.2 |
| A41C U56A U82A A150G | -1.45 |
